Recorded values, source ChEMBL document CHEMBL1201862.

System: NCI-H522
protocol.text: NCI tumour cell line growth inhibition, 48 h
Active and inactive are the calls of the source. Rule as the data show it: active = GI50 up to about 1.1 µM and inactive = higher.
Catalogue of GI50 values

Some compounds with known GI50 results, for comparison:
> print(dat)
                                   compound                  val
1  Cc1c(F)c(NC(=O)CN(C)C)c2c(=O)cc(-c3ccc(NC(=O)CN(C)C)c(F)c3)oc2c1F   17.5 µM (inactive)
2  Cc1cc2c(c(/C=N/c3ccc([N+](=O)[O-])cc3)c1)OC1(C=C2)Oc2ccccc2C(=O)N1C (stereo not given)   21.5 µM (inactive)
3    CSc1c(C#N)c(N)n2c1C(=O)N(c1ccccc1)C2=S   21.2 µM (inactive)
4  CCOC(=O)C(CCc1ncnc2c1ncn2Cc1ccccc1)(CCc1ncnc2c1ncn2Cc1ccccc1)C(=O)OCC   33.9 µM (inactive)
5  CC(=O)OC12c3ccccc3C1CCCCCC21OCCCO1 (stereo not given)  > 100 µM (inactive)
6  O=C(N/C(=C\c1cccc([N+](=O)[O-])c1)c1nc2ccccc2[nH]1)c1ccccc1   36.8 µM (inactive)

Consider the record given below.
Lab note: Oc1ncc(N(CCCl)CCCl)c(O)n1 gave GI50 of 14.3 µM (inactive)

* * *

Test system: SK-MEL-5
protocol.text: NCI tumour cell line growth inhibition, 48 h
Calls of active or inactive are those of the source. Cut-off read from the data, not from the text of the source: active = GI50 up to about 1.1 µM and inactive = higher.
The categories you may choose from are 1 for active, 0 for inactive

> print(dat)
                                compound  assayed.target  qualitative.label
1  O=C1CCCCC1CN1CCCC1 (stereo not given)        SK-MEL-5                  0

Returns: the outcome recorded for COc1cc2c(cc1OC)C(C#N)(Cc1ccccc1)N(C(=O)c1ccccc1)C=C2 (stereo not given) in this assay.
0

What call does the record list for CCOC(=O)C(Cc1ccc(N(CCCl)CCCl)cc1)NC(=O)C(Cc1ccccc1)NC(C)=O (stereo not given) ?
1

Called result for CCOc1ccc(C2=NN(CC)C(=O)C(C3C(=O)N(c4ccccc4)N=C3C)C2)cc1 (stereo not given)
0

Given COc1cc(/N=N/N(C)C)c(C(C)c2c3cc(OC)c(OC)cc3cc[n+]2C)cc1OC (stereo not given) , state the outcome it received in this test.
0

* * *

Tested on: SN12C
protocol.text: NCI tumour cell line growth inhibition, 48 h
The source made the active and inactive calls. Rule as the data show it: active = GI50 up to about 1.1 µM and inactive = higher.
Permitted responses: YES for active, NO for inactive

Illustrative cases are given below, each with its answer.
> print(dat)
                                    molecule  assayed.target  qualitative.label
 1     CC[N+](C)(CC)CCC(O)(c1ccccc1)c1ccccc1           SN12C                 NO
 2  O=C1CC(CC(O)C(O)C(O)CO)CC(=O)N1 (stereo unspecified)           SN12C                 NO
 3  Cn1/c(=N\c2ccccc2[N+](=O)[O-])sc2ccccc21           SN12C                 NO
 4  O=[N+]([O-])c1cc(Cl)ccc1S(=O)(=O)c1ccccc1           SN12C                 NO
 5  Cn1cc(-c2cnc(-c3cn(C)c4ccccc34)cn2)c2ccccc21           SN12C                 NO
 6                        CC1(C)OB(O)OC1(C)C           SN12C                 NO
 7     CCOc1ccc2[nH]c3c(C)c4ccncc4c(C)c3c2c1           SN12C                YES
 8    CN(C)CCNC(=O)c1cc(-c2nccn2C)nc2ccccc12           SN12C                 NO
 9  CCCNC(C#N)c1ccc(OCCCCCCCCCCOc2ccc(C(C#N)NCCC)cc2)cc1 (stereo unspecified)           SN12C                 NO
10  C=C(Nc1nc2ccc(C)cc2s1)C(=O)C(CC)C(=O)C(CC)CC1C(=O)NC(=O)NC1=O (stereo unspecified)           SN12C                 NO

Then this molecule:
State the result this test recorded for NC(CCOCCP(=O)(O)CCC1C=CC=CC1)C(=O)O (stereo unspecified) .
NO
